details: in 1,2-dimethoxyethane, 333.15 K
Test readout: solubility (mole fraction)
Give a plain numeric answer without units written out.

Exercise: Field request: solubility (mole fraction) | item: O=C(O)c1ccc(C(=O)O)o1
Solution: 0.00487

###

details: in THF, 313.15 K
Test readout: solubility (mole fraction)

Exercise: I have this molecule here, O=C(O)c1ccc(C(=O)O)o1 , and I need its recorded solubility (mole fraction).
Solution: 0.00998

###

conditions: in 1,2-dimethoxyethane, 303.15 K
Test readout: solubility (mole fraction)
Returns: the value as a bare number; no unit string appended.

Exercise: Form field: reported solubility (mole fraction) of O=C(O)c1ccc(C(=O)O)o1
Solution: 0.00344
